# TARGET OR TEST SYSTEM: human TACE (Homo sapiens (Human))
# Sequence (P78536 whole entry, looked up, change not shown): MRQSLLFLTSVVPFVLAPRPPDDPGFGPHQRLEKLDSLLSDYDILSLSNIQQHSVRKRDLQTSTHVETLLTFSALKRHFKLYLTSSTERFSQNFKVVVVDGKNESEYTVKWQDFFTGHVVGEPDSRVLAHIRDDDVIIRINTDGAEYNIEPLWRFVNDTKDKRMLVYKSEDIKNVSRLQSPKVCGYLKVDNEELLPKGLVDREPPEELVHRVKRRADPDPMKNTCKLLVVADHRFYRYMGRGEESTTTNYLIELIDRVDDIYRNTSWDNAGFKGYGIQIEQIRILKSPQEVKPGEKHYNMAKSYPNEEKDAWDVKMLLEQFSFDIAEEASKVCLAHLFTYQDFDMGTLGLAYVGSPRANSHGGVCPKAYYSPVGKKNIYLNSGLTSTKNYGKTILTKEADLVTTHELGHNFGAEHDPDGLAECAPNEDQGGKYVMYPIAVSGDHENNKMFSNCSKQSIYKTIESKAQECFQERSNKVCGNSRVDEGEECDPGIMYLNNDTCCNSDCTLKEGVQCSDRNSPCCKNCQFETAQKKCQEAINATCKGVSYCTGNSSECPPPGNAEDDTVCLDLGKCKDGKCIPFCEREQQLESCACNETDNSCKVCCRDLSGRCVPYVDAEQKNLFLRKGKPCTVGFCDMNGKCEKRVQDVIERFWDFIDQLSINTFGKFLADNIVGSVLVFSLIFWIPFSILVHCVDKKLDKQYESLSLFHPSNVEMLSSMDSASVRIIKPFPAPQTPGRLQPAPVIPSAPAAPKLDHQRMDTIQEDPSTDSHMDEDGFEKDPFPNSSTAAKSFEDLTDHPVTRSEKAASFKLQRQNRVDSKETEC
# ASSAY CONTEXT: read-out: TACE potency IC50
pIC50: −log10 of the molar value.
RECORDED ENDPOINT: pIC50

Known value: human TACE (Homo sapiens (Human)) pIC50 of the compound C[C@H]1CN(C(=O)CCC2(c3cnccn3)NC(=O)NC2=O)CCN1c1ccc(Cl)c(Cl)c1 (stereo partly shown) equals < 5.40

Record CC(CC1(C)NC(=O)NC1=O)C(=O)N1C[C@H](C)N(c2cc(Cl)cc(Cl)c2)[C@@H](C)C1 (stereo partly shown) / human TACE (Homo sapiens (Human)), pIC50 recorded as < 4.70

Given the compound COCC1(CC(C)C(=O)N2CCN(c3cccc(Cl)c3C)CC2)NC(=O)NC1=O (stereo not shown) and test system human TACE (Homo sapiens (Human)), the measured pIC50 is 5.90

human TACE (Homo sapiens (Human)) assay, compound C[C@H]1CN(C(=O)CCC2(C3CC3)NC(=O)NC2=O)CCN1c1ccc(F)cc1 (stereo partly shown) , recorded pIC50 = < 4.70

For the compound Cc1cccc(C2(CCC(=O)N3CCN(c4cccc(F)c4)[C@@H](C)C3)NC(=O)NC2=O)n1 (stereo partly shown) , the measured pIC50 on human TACE (Homo sapiens (Human)) was < 5.40

Entry C[C@H]1CN(C(=O)CCC2(C3CC3)NC(=O)NC2=O)CCN1c1ccc(Cl)nn1 (stereo partly shown) , tested on human TACE (Homo sapiens (Human)), has a reported pIC50 of < 5.40

Known value: human TACE (Homo sapiens (Human)) pIC50 of the compound Cc1ccc(Cl)cc1N1CCN(C(=O)CCC2(c3ccccc3)NC(=O)NC2=O)CC1 (stereo not shown) equals 6.53

Hey, human TACE (Homo sapiens (Human)) data for C[C@H]1CN(C(=O)CCC2(C3CC3)NC(=O)NC2=O)CCN1c1cc(F)cc(-c2cn[nH]c2)c1 (stereo partly shown) : pIC50 came out at < 5.40

Summary line: C[C@H]1CN(C(=O)CCC2(C3CC3)NC(=O)NC2=O)CCN1c1ccc(Cl)c(F)c1 (stereo partly shown) , human TACE (Homo sapiens (Human)), reported pIC50 = < 4.70

// returns pIC50 for Cc1ccc(Cl)cc1N1CCN(C(=O)CCC2(c3ccc(Cl)cc3)NC(=O)NC2=O)CC1 (stereo not shown) with human TACE (Homo sapiens (Human)); value = 6.26

GET /values?item= C[C@H]1CN(C(=O)CCC2(c3ccccn3)NC(=O)NC2=O)CCN1c1ccc(Cl)c(Cl)c1 (stereo partly shown) [compound 347] &system= human TACE (Homo sapiens (Human)) returns pIC50: 5.62

Reported human TACE (Homo sapiens (Human)) pIC50 for item Cc1cc(N2CCN(C(=O)CCC3(C4CC4)NC(=O)NC3=O)C[C@@H]2C)ccc1F (stereo partly shown) was < 4.70

pIC50 for human TACE (Homo sapiens (Human)) with input Cc1cccc(C2(CCC(=O)N3CCN(c4cccc(Cl)c4)[C@@H](C)C3)NC(=O)NC2=O)n1 (stereo partly shown) equals 5.51
